# System: Human Factor D (Homo sapiens (Human))
# Sequence (P00746 26-253): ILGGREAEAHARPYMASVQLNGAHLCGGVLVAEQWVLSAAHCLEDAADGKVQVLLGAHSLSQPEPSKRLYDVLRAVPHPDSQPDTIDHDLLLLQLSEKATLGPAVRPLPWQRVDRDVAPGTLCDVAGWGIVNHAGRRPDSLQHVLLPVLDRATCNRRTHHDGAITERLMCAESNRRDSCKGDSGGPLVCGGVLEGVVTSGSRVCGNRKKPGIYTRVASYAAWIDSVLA
# Method: Human Factor D assay
# Format: biochemical
# Condition details: Table 3; Factor D inhibition, substrate Z-L-Lys-SBzl
pIC50: −log10 of the molar value.
Quantity name: pIC50

Prompt line: Need pIC50, item `CC(=O)c1nn2c3ccc(cc13)-c1cnc(nc1)NCCCCCCCCC/C=C\c1cc(Cl)c(F)c(c1)CNC(=O)[C@@H]1C[C@@H](F)CN1C(=O)C2`
Response line: > 6.00

Prompt line: Fill in the blank: the reported pIC50 of `CC(=O)c1cn(CC(=O)N2C[C@H](F)C[C@H]2C(=O)Nc2cccc(-c3ccccc3Cl)c2F)c2ccc(-c3cnc(O[C@@H]4CO[C@H]5[C@@H]4OC[C@H]5O)nc3)cc12` is ____.
Response line: > 6.00

Prompt line: Recorded pIC50 for `CC(=O)c1nn(CC(=O)N2C[C@H](F)C[C@H]2C(=O)Nc2cccc(-c3ccc4scnc4c3)c2F)c2ccc(-c3cnc(C)nc3)cc12` , please?
Response line: > 6.00

Prompt line: Please report the recorded pIC50 for `COC(=O)[C@@H]1C[C@@H](F)CN1C(=O)Cn1nc(C(C)=O)c2cc(-c3cnc(C)nc3)ccc21` .
Response line: < 5.00

Prompt line: Any idea what its pIC50 is? The compound is `CC(=O)c1cn(CC(=O)N[C@H](C(=O)Nc2cccc(Br)n2)[C@@H](C)O)c2ccc(-c3cnc(C)nc3)cc12`
Response line: > 6.00

Prompt line: Would you mind telling me what pIC50 value was observed for `CO[C@@H]1CO[C@H]2[C@@H]1OC[C@H]2Oc1ncc(-c2ccc3c(c2)c(C(C)=O)cn3CC(=O)N2C[C@H](F)C[C@H]2C(=O)Nc2cccc(-c3ccccc3Cl)c2F)cn1` ?
Response line: > 6.00
